Ref: ChEMBL document CHEMBL4359878

Here the recorded pIC50 is given for each entry.
# experimental.target: Receptor-type tyrosine-protein kinase FLT3 (Homo sapiens, UniProt P36888)
# Sequence (P36888 whole entry): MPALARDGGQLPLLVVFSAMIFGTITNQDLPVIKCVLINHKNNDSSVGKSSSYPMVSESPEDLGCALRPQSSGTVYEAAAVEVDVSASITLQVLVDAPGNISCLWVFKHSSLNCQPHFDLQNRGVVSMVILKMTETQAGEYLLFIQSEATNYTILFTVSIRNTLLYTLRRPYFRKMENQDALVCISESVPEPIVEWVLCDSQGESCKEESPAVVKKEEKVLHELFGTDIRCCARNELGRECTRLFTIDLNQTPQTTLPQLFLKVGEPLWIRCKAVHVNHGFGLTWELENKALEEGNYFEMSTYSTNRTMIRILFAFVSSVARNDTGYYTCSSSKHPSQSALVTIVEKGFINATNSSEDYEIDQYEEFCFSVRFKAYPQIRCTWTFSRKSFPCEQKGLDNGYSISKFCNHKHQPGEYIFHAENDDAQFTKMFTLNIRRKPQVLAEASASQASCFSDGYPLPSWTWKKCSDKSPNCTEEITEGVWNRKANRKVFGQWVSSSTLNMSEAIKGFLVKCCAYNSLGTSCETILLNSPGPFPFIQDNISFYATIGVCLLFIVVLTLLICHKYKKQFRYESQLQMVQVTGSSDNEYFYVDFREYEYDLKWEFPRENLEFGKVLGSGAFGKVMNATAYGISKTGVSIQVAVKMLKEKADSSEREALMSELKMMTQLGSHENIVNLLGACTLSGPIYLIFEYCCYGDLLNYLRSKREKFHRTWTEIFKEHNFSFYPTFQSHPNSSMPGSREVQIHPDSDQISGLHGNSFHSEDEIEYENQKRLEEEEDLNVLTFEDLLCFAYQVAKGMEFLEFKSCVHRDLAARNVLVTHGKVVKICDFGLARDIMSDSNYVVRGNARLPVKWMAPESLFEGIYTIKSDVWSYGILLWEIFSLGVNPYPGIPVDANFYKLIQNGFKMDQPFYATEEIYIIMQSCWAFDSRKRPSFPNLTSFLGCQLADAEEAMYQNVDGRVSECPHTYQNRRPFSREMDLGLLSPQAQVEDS
// pIC50 is dimensionless: -log10 of concentration (M)

Exercise: Suppose we examine the molecule CC(=O)c1ccc(NC(=O)N2CCN(c3ccnc(Nc4ccc(OCCCN5CCCC5)cc4)n3)CC2)cc1 ; what pIC50 value has been reported?
Key: 7.89

Exercise: One more molecule: CC(=O)c1ccc(NC(=O)N2CCN(c3ccnc(Nc4ccc(N5CCN(C)CC5)cc4)n3)CC2)cc1
Key: 7.92

Okay, now this molecule:
Exercise: Suppose we examine the molecule NC(=O)c1ccc(NC(=O)N2CCN(c3ccnc(Nc4ccc(N5CCOCC5)cc4)n3)CC2)cc1 ; what pIC50 value has been reported?
Key: 7.68

====

# experimental.target: Receptor-type tyrosine-protein kinase FLT3 (Homo sapiens) (UniProt P36888)
# conditions.used: at 100 nM
# Description: Inhibition of N-terminal GST-tagged human FLT3 cytoplasmic domain (564 to 993 residues) expressed in baculovirus expression system at 100 nM using FAM-labeled peptide as substrate preincubated for 10 mins followed by substrate addition measured after 1 hr in presence of ATP by mobility shift assay relative to control
Here the recorded inhibition is given for each entry.
Give your result in % as a bare value.

Use the examples below as a reference point.
Exercise: Any idea what inhibition came out for O=C(Nc1cccc(C(F)(F)F)c1)N1CCN(c2ccnc(Nc3ccc(N4CCOCC4)cc3)n2)CC1 on Receptor-type tyrosine-protein kinase FLT3 (Homo sapiens) (UniProt P36888)?
Key: 36.5

Exercise: One more molecule: CCc1ccc(NC(=O)N2CCN(c3ccnc(Nc4ccc(N5CCOCC5)cc4)n3)CC2)cc1
Key: 27.4

Exercise: One more molecule: CC(=O)c1ccc(NC(=O)N2CCN(c3ccnc(Nc4ccc(N5CCSCC5)cc4)n3)CC2)cc1
Key: 77.6

Exercise: One more molecule: O=C(Nc1ccc(C(=O)N2CCOCC2)cc1)N1CCN(c2ccnc(Nc3ccc(N4CCOCC4)cc3)n2)CC1
Key: 17.2

Exercise: One more molecule: NS(=O)(=O)c1ccc(NC(=O)N2CCN(c3ccnc(Nc4ccc(N5CCOCC5)cc4)n3)CC2)cc1
Key: 79.7

Exercise: One more molecule: COC(=O)c1ccc(NC(=O)N2CCN(c3ccnc(Nc4ccc(N5CCOCC5)cc4)n3)CC2)cc1
Key: 62.8

Exercise: One more molecule: CN1CCN(c2ccc(Nc3nccc(N4CCN(C(=O)Nc5ccc(S(N)(=O)=O)cc5)CC4)n3)cc2)CC1
Key: 86

Further cases:
Exercise: Any idea what inhibition came out for CC(=O)c1ccc(NC(=O)N2CCN(c3ccnc(Nc4ccc(OCCCN5CCCC5)cc4)n3)CC2)cc1 on Receptor-type tyrosine-protein kinase FLT3 (Homo sapiens) (UniProt P36888)?
Key: 83.2

====

# experimental.target: Tyrosine-protein kinase JAK2 (Homo sapiens, UniProt O60674)
# Sequence (O60674 whole entry, the tested form may be a part): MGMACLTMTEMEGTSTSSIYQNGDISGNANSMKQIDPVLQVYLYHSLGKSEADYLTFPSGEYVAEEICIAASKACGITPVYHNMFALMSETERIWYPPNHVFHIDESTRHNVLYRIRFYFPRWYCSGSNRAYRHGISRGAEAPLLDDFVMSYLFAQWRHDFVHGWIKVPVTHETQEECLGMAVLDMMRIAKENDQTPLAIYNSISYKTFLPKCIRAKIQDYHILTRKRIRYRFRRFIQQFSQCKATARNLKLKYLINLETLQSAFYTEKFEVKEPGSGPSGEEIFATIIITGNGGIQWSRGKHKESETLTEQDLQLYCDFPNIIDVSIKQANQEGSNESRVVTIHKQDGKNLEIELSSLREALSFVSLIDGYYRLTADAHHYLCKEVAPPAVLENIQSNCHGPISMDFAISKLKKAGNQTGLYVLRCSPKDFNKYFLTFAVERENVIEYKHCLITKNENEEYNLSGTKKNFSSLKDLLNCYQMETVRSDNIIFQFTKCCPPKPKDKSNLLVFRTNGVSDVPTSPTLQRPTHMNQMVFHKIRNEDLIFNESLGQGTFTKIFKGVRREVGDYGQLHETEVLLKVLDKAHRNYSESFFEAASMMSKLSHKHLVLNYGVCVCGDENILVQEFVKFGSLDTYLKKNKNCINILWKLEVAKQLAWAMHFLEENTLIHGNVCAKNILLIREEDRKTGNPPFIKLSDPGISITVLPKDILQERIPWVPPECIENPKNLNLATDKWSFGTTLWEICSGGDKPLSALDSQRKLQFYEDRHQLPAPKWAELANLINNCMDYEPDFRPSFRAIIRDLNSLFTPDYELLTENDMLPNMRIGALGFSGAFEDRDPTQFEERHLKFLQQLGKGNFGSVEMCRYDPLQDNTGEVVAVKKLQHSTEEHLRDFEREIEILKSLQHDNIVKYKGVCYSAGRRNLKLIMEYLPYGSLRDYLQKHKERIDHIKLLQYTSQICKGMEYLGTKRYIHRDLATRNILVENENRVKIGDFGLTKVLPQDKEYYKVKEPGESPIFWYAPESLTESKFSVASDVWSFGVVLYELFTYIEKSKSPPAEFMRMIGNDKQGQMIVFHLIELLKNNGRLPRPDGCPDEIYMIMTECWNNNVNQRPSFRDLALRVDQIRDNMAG
# assay.name: Inhibition of N-terminal His-tagged human JAK2 catalytic domain (826 to 1132 resiudes) expressed in baculovirus expression system at 100 nM using FAM-labeled peptide as substrate preincubated for 10 mins followed by substrate addition measured after 1 hr in presence of ATP by mobility shift assay relative to control
Binning of inhibition into classes: LOW = under 20%, MID = from 20% up to 60%, HIGH = 60% and over

Exercise: Form: Item = O=C(Nc1ccccc1C(F)(F)F)N1CCN(c2ccnc(Nc3ccc(N4CCOCC4)cc3)n2)CC1 ; Class = ?
Key: MID

Exercise: One more molecule: CS(=O)(=O)c1ccc(NC(=O)N2CCN(c3ccnc(Nc4ccc(N5CCOCC5)cc4)n3)CC2)cc1
Key: HIGH

Exercise: One more molecule: N#Cc1cccc(NC(=O)N2CCN(c3ccnc(Nc4ccc(N5CCOCC5)cc4)n3)CC2)c1
Key: LOW

Now turn to the next molecule.
Exercise: Form: Item = CC(=O)c1cccc(NC(=O)N2CCN(c3ccnc(Nc4ccc(N5CCOCC5)cc4)n3)CC2)c1 ; Class = ?
Key: LOW

====

# experimental.target: UniProtKB P36888
# conditions.used: at 100 nM
Here the recorded inhibition is given for each entry.
Give your result in % as a bare value.

Exercise: Any idea what inhibition came out for COC(=O)CNC(=O)c1ccc(NC(=O)N2CCN(c3ccnc(Nc4ccc(N5CCOCC5)cc4)n3)CC2)cc1 on UniProtKB P36888?
Key: 33.1

Exercise: One more compound: O=C(Nc1ccc(F)cc1)N1CCN(c2ccnc(Nc3ccc(N4CCOCC4)cc3)n2)CC1
Key: 27.8

Exercise: One more compound: N#Cc1cccc(NC(=O)N2CCN(c3ccnc(Nc4ccc(N5CCOCC5)cc4)n3)CC2)c1
Key: 15.9

Exercise: One more compound: NC(=O)c1cccc(NC(=O)N2CCN(c3ccnc(Nc4ccc(N5CCOCC5)cc4)n3)CC2)c1
Key: 39.8

Exercise: One more compound: CN1CCN(c2ccc(Nc3nccc(N4CCN(C(=O)Nc5ccc(C(N)=O)cc5)CC4)n3)cc2)CC1
Key: 85

====

Here the recorded GI50 is given for each entry.
# System: HL-60
# assay.name: Antiproliferative activity against human HL60 cells assessed as growth inhibition after 72 hrs by CCK-8 assay
# Type: functional
# conditions.used: HL-60, 72 h

Exercise: Suppose we examine the molecule CC(=O)c1ccc(NC(=O)N2CCN(c3ccnc(Nc4ccc(N5CCSCC5)cc4)n3)CC2)cc1 ; what GI50 value has been reported?
Key: > 50 µM

Exercise: One more molecule: NS(=O)(=O)c1ccc(NC(=O)N2CCN(c3ccnc(Nc4ccc(N5CCOCC5)cc4)n3)CC2)cc1
Key: > 50 µM

Okay, now this molecule:
Exercise: Suppose we examine the molecule NC(=O)c1ccc(NC(=O)N2CCN(c3ccnc(Nc4ccc(N5CCOCC5)cc4)n3)CC2)cc1 ; what GI50 value has been reported?
Key: > 50 µM

====

# experimental.target: Receptor-type tyrosine-protein kinase FLT3 (Homo sapiens) (UniProt P36888)
# conditions.used: at 100 nM
quantity: inhibition (%)
Give your result in % as a bare value.

Use the examples below as a reference point.
Exercise: Suppose we examine the compound CC(=O)c1ccc(NC(=O)N2CCN(c3ccnc(Nc4ccc(OCCN5CCCC5)cc4)n3)CC2)cc1 ; what inhibition value has been reported?
Key: 69

Exercise: One more compound: CC(=O)c1cccc(NC(=O)N2CCN(c3ccnc(Nc4ccc(N5CCOCC5)cc4)n3)CC2)c1
Key: 3.3

Exercise: One more compound: CC(=O)c1ccccc1NC(=O)N1CCN(c2ccnc(Nc3ccc(N4CCOCC4)cc3)n2)CC1
Key: 13.8

Exercise: One more compound: O=C(Nc1ccccc1)N1CCN(c2ccnc(Nc3ccc(N4CCOCC4)cc3)n2)CC1
Key: 27.8

Exercise: One more compound: O=C(Nc1ccc([N+](=O)[O-])cc1)N1CCN(c2ccnc(Nc3ccc(N4CCOCC4)cc3)n2)CC1
Key: 84.4

Further cases:
Exercise: Suppose we examine the compound NC(=O)c1ccc(NC(=O)N2CCN(c3ccnc(Nc4ccc(N5CCOCC5)cc4)n3)CC2)cc1 ; what inhibition value has been reported?
Key: 81.1

Exercise: One more compound: CC(=O)c1ccc(NC(=O)N2CCN(c3ccnc(Nc4ccc(N5CCC(C)CC5)cc4)n3)CC2)cc1
Key: 54
